# Ki against UniProtKB P35462, merged from multiple literature sources
MEASURED_ENDPOINT: Ki (nM)

Ask: Given the molecule COc1cc2c(cc1OC(C)=O)C1Cc3ccc(OC)c(OC)c3CCN1CC2 (centres undefined) , what is its reported Ki?
Result: 73.7

[1] CCCCCCOc1nsnc1C1=CCCN(C)C1
[2] CN1CCN(CCCN2c3ccccc3Sc3ccc(S(=O)(=O)N(C)C)cc32)CC1
[3] CN(C)[C@H](CNC(=O)c1cc([N+](=O)[O-])cc([N+](=O)[O-])c1)c1ccco1
[4] Cc1ccc(-c2ccc(CNC(C)(C)CO)o2)cc1Cl
[5] COc1cc2c(cc1O)C1Cc3cc(OC)c(OC)cc3CCN1CC2 (centres undefined)
Ask: Kindly order the items shown according to Ki, from the highest value down. Return the labels ranked in the requested order, please.
Result: 3, 4, 1, 5, 2

[P] CCS(=O)(=O)c1ccc(OC)c(-c2ccc(CN3CCCCCC3c3ccccc3)[nH]2)c1 (centres undefined)
[Q] CN(CCCOc1ccccc1)CC(=O)N1CCc2ccccc21
Ask: Please let me know which one, P or Q , has a lower measured Ki value. Mark your selection by writing its label.
Result: P
(P: 1.3 nM, Q: 7210 nM)

[P] CS(=O)(=O)Oc1ccc2c(c1)CCN(CC[C@H]1CC[C@H](NC(=O)C=Cc3cccc(F)c3)CC1)CC2
[Q] CC1CCN(CCC(=O)N2c3ccccc3C[C@@H]2C)CC1
Ask: Of P and Q , which shows the smaller Ki value? Output the label that corresponds to your choice.
Result: P

[a] CC(C)(CO)NCc1ccc(-c2ccc(F)c(Cl)c2)o1
[b] N#C/C(=C\c1ccco1)C(=O)N1CCN(CCc2ccccc2)CC1
Ask: I would appreciate it if you could say which entry, a or b , has the lower Ki value. I would appreciate it if you answered with the label of your choice.
Result: a
